Test system: MCF7
TEST_PROTOCOL: Growth inhibition of Homo sapiens (human) MCF7 cells at 60 ug/ml after 48 hr by MTT assay relative to control
Type: functional
CONDITION_INFO: MCF7, 48 h, read-out: GI
Criterion: inhibition of growth at 60 µg/mL meeting or surpassing 80%. Met: label 1. Not met: label 0.

Incoming: Decide: is the reported value of inhibition of growth at 60 µg/mL for O=c1cc(-c2ccccc2)oc2cc(N3COc4c(Cl)cc(Cl)cc4C3)ccc12 equal to or greater than 80%?
Outgoing: label 0

Incoming: Decide: is the reported value of inhibition of growth at 60 µg/mL for COc1cc2c(c(OC)c1)OCN(c1ccc3c(=O)cc(-c4ccccc4)oc3c1)C2 equal to or greater than 80%?
Outgoing: label 1

Incoming: Decide: is the reported value of inhibition of growth at 60 µg/mL for COc1cc2c(c(OC)c1)OCN(c1ccc3oc(-c4ccccc4)cc(=O)c3c1)C2 equal to or greater than 80%?
Outgoing: label 1

Incoming: Decide: is the reported value of inhibition of growth at 60 µg/mL for Cc1cccc2c1OCN(c1ccc3oc(-c4ccccc4)cc(=O)c3c1)C2 equal to or greater than 80%?
Outgoing: label 1

Incoming: Decide: is the reported value of inhibition of growth at 60 µg/mL for Cc1cccc2c1OCN(c1ccc3c(=O)cc(-c4ccccc4)oc3c1)C2 equal to or greater than 80%?
Outgoing: label 0

Incoming: Decide: is the reported value of inhibition of growth at 60 µg/mL for O=c1cc(-c2ccccc2)oc2ccc(N3COc4c(cccc4[N+](=O)[O-])C3)cc12 equal to or greater than 80%?
Outgoing: label 0

Incoming: Decide: is the reported value of inhibition of growth at 60 µg/mL for O=c1cc(-c2ccccc2)oc2cc(N3COc4c(Br)cccc4C3)ccc12 equal to or greater than 80%?
Outgoing: label 0

Incoming: Decide: is the reported value of inhibition of growth at 60 µg/mL for O=c1cc(-c2ccccc2)oc2ccc(N3COc4c(Br)cc(Br)cc4C3)cc12 equal to or greater than 80%?
Outgoing: label 0

Incoming: Decide: is the reported value of inhibition of growth at 60 µg/mL for O=c1cc(-c2ccccc2)oc2cc(N3COc4c(Br)cc(Br)cc4C3)ccc12 equal to or greater than 80%?
Outgoing: label 0

Incoming: Decide: is the reported value of inhibition of growth at 60 µg/mL for Cc1cc(C)c2c(c1)CN(c1ccc3c(=O)cc(-c4ccccc4)oc3c1)CO2 equal to or greater than 80%?
Outgoing: label 0

Incoming: Decide: is the reported value of inhibition of growth at 60 µg/mL for COc1cccc2c1C(=O)c1c(O)c3c(c(O)c1C2=O)C[C@@](O)(C(=O)CO)C[C@@H]3O[C@H]1C[C@H](N)[C@H](O)[C@H](C)O1 [DOXORUBICIN] equal to or greater than 80%?
Outgoing: label 1

Incoming: Decide: is the reported value of inhibition of growth at 60 µg/mL for O=c1cc(-c2ccccc2)oc2cc(N3COc4ccccc4C3)ccc12 equal to or greater than 80%?
Outgoing: label 0

Incoming: Decide: is the reported value of inhibition of growth at 60 µg/mL for COc1cccc2c1OCN(c1ccc3oc(-c4ccccc4)cc(=O)c3c1)C2 equal to or greater than 80%?
Outgoing: label 1
